- assay_protocol: Toxicity liver stage against HepG2, at 10uM
- Format: cell-based
- Set-up: test concentration 10 uM, cell line HepG2-A16-CD81EGFP
- experimental_parameters: human, HepG2-A16-CD81EGFP cells; read-out: INHIBITION
measure: cytotoxicity at 10 µM (%)
Answer format: numeric, % implied, no suffix.

[
  {
    "compound": "O=c1ccc2c([nH]1)CCC(NS(=O)(=O)C1CC1)C2 (stereo unspecified)",
    "cytotoxicity at 10 µM (%)": 3.66
  },
  {
    "compound": "O=C(c1ccsc1)N1CCc2c(CN3CCCC3)n[nH]c2C1",
    "cytotoxicity at 10 µM (%)": 5.04
  },
  {
    "compound": "CCn1ccnc1CN1CCN(c2nc(C)cc(OC)n2)CC1",
    "cytotoxicity at 10 µM (%)": -5.48
  },
  {
    "compound": "CC(=O)N1C(CN2CCCC2)C[C@@H]2CN(C(=O)c3ccoc3)CC[C@@H]21 (stereo partly specified)",
    "cytotoxicity at 10 µM (%)": -0.655
  }
]

Prompt: May I ask what cytotoxicity at 10 µM has been recorded for Cc1nc(N2CCCC2C(=O)NCc2ccsc2)nc2ccccc12 (stereo unspecified) ?
Completion: 6.03

Prompt: Entry "Cn1c(=O)n(C)c2cc(NS(=O)(=O)Cc3cccc(F)c3)ccc21" has what cytotoxicity at 10 µM?
Completion: 6.37

Values compiled from ChEMBL document CHEMBL4513216.
